# Test system: CCRF-CEM leukemia
# assay explanation: NCI-60 one-dose screen, 48 h (100 = growth as untreated, 0 = no growth, -100 = all killed)
# condition notes: 10 µM unless noted
Compounds without any hit were thinned out: in the full panel of roughly 83,000, 20% have a hit. Active and inactive are the calls of the source. Rule for the calls: active = growth percent below 10; inactive = the rest.
recorded metric: growth

Would you please look over these solved cases?
O=C(O)c1cn(C2CC2)c2cc(N3CCN(C(=O)C[n+]4cccc5ccccc54)CC3)c(F)cc2c1=O: -37.5% (active)
CSc1nc(O)c(-c2ccccc2)c(=O)[nH]1: 102% (inactive)
COc1ccncc1C#Cc1cncc(C(=O)Nc2ccc(CN3CCN(C)CC3)c(C(F)(F)F)c2)c1: 12.3% (inactive)

Hi team, please reply with growth for each item in this list.
1. CCOC(=O)c1cnc2c(cnn2CC)c1NN=C(C)C
2. O=C(O)c1ccc[n+](CC(=O)N2CCN(c3cc4c(cc3F)c(=O)c(C(=O)O)cn4C3CC3)CC2)c1

92% (inactive)
-25.6% (active)
